Measured values drawn from patent US20040072892A1 for this set.

Experiment: Concentration of test drug in blood by oral administration in rats (LC/MS/MS)
Type: in vivo
Settings: male, rat, plasma; Wistar rats, oral 1 mg/kg, 10 min. after administration, mean of 2 samples
Counter-ions that a name gives are not always drawn.
property-label: concentration at 10 min (ng/mL)
# unit: ng/mL | format: bare number

>>> df
                                   molecule           property_label  numeric_value
0  CC[C@H](C)[C@H](N)C(=O)N1C[C@@H](F)C[C@H]1C#N.Cl [Example 1, Hydrochloride]  concentration at 10 min            372

// moving on: another record for concentration at 10 min
What does the record list as concentration at 10 min for CC[C@H](C)[C@H](N)C(=O)N1CCC[C@H]1C#N [Compound A, trifluoroacetate, reference compound] ?
146

###

Target: dipeptidyl peptidase IV (DPP IV) (Homo sapiens, UniProt P27487)
Sequence (P27487 39-766 limits assumed): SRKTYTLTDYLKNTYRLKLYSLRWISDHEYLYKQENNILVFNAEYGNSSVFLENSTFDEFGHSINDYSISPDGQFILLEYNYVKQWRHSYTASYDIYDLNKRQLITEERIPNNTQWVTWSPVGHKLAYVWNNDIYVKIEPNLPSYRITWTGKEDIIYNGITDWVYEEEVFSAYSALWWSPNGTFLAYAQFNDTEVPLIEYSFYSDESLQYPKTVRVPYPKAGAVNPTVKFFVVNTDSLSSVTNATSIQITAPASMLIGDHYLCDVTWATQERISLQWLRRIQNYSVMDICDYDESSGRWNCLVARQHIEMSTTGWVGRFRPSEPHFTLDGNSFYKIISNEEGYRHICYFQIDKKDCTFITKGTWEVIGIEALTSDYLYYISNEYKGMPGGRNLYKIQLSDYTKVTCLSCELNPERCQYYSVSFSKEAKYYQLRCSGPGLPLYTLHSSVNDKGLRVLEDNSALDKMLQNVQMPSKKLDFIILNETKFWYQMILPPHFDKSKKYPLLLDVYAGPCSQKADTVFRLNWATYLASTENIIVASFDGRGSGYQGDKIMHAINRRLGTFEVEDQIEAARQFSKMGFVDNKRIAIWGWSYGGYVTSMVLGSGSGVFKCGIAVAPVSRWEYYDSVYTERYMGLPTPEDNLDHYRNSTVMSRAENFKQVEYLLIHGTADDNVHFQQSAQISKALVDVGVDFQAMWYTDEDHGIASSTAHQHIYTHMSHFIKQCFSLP
Experiment: Dipeptidyl peptidase IV activity inhibition test (human plasma, Gly-Pro-4-methylcoumaryl-7-amide)
Type: biochemical
Settings: room temperature, 2 hours, pH 7.8
Structures can show the parent of a compound that is named as a salt.
Measured IC50 accompanies every entry in the list below.
# do not omit the unit; it follows the number

                                   molecule  result
0  CC(C)[C@H](N)C(=O)N1C[C@@H](F)C[C@H]1C#N [Example 15, Hydrochloride]  0.7 nM
1  CC(C)(C)[C@H](N)C(=O)N1C[C@@H](F)C[C@H]1C#N [Example 17, Hydrochloride]  0.6 nM

// next entry
What value of measured IC50 is listed for CC[C@H](C)[C@H](N)C(=O)N1C[C@@H](F)C[C@H]1C#N.Cl [Example 1, Hydrochloride] ?
0.6 nM

###

The reader will find reported concentration at 1 h values listed item by item below.
Assay: Concentration of test drug in blood by oral administration in rats (LC/MS/MS)
Format: in vivo
Conditions: male, rat, plasma; Wistar rats, oral 1 mg/kg, 1 hour after administration, mean of 2 samples
Method: Experiment 2 [Concentration of Test Drug in Blood by Oral Administration in Rats] Wistar rats, male (8 weeks old) were used after fasting from the day before the test. At 5, 10, 15, 30 minutes, 1 and 2 hours after the administration, each 0.2 ml of blood was collected from the jugular vein and, after centrifugation, the resulting plasma was used as sample. […]
Counter-ions that a name gives are not always drawn.

In [3]: df
Out[3]:
                                   compound    result
0  CC[C@H](C)[C@H](N)C(=O)N1C[C@@H](F)C[C@H]1C#N.Cl [Example 1, Hydrochloride]  24 ng/mL

What does the data say about its concentration at 1 h? Entry: CC[C@H](C)[C@H](N)C(=O)N1CCC[C@H]1C#N [Compound A, trifluoroacetate, reference compound]
6 ng/mL
